assay: NCI Yeast Anticancer Drug Screen. Data for the mlh1 rad18 strain (AID 175); conditions: S. cerevisiae mlh1 rad18 strain growth inhibition; at 50.0 µM (retest, dose inferred, filed as 5.0)
About 79,000 compounds went through this panel and 15% of them were active in at least one assay; those are over-represented in the sample as a whole. The source made the active and inactive calls. No stated cut-off is given here; in the data, active means growth inhibition above about 70%; inactive means the rest.
Log the outcome using a class from True for active, False for inactive

Known results for compounds:
CC[C@@]1(OC(=O)C(N)CCCCN)C(=O)OCc2c1cc1n(c2=O)Cc2cc3ccccc3nc2-1 (some centres not stated); True
O=S(=O)(c1ccc(F)cc1)c1ccc(F)cc1; False
OC1CC2CCCC(C1)C2 (configuration not stated); False
CCOC(=O)/C(C#N)=C\c1ccc([N+](=O)[O-])o1; True
COc1cccc(NC(=S)C(C#N)C(=O)Nc2cccc(C(F)(F)F)c2)c1 (configuration not stated); True

Write down the call the test reported for this compound. Item: Clc1ccc(CNCCCNCc2ccc(Cl)cc2)cc1 False

# outcome recorded in this test, key = CC(C)C1=C(O)C2=C(C(=O)C1=O)C1(C)CCCC(C)(C)C1CC2O (configuration not stated) True

Recorded test outcome, item O=C1C(Cl)=C(N2CCN(C3=C(Cl)C(=O)c4ccccc4C3=O)CC2)C(=O)c2ccccc21 True

Each compound tested received a call. Report the one for Nc1ccc([N+](=O)[O-])c(S(=O)(=O)O)c1 . False

Assay outcome for Cc1ccc2c(c1)C1(C)OC(C=CC1=O)O2 (configuration not stated) : what was it? True

Could you kindly confirm the outcome this assay logged for CC[N+](CC)=c1ccc2nc3c(cc(N)c4ccccc43)oc-2c1 ? False

# outcome recorded in this test, key = Cc1nc2c(Br)cc(Br)cc2c(=O)n1-c1ccccc1NC1OC(CO)C(O)C(O)C1O (configuration not stated) False

---

assay: NCI Yeast Anticancer Drug Screen. Data for the mec2-1 strain (AID 157); settings: S. cerevisiae mec2-1 strain, at 50.0 µM (retest, dose inferred, filed as 5.0), active compounds read high
About 79,000 compounds went through this panel and 15% of them were active in at least one assay; those are over-represented in the sample as a whole.
Tag: T if measured growth inhibition is not below 40%, F if it is.

The examples below pair each entry with its known result.
Cc1c2ccccc2c(C=O)c2ccccc12; T
Cc1n(CC(C)C)c2c([n+]1C)C(=O)c1ccccc1C2=O; T
O=S(O)CCCCSSCC(O)C(O)CSSCCCCS(=O)O (centres undefined); T
COc1cccc2c1C(=O)c1c(O)c3c(c(O)c1C2=O)C[C@@](O)(C(C)=O)C[C@@H]3OC1CC(O)C(O)C(C)O1 (some centres undefined); T
COC(=O)C(CC(C)=O)CS(=O)(=O)CC(=O)C(=O)Nc1cccc([N+](=O)[O-])c1 (centres undefined); T

Is growth inhibition at least 40%? Consider Nc1nc(=S)c2ncn(C3OC(CO)C(O)C3O)c2[nH]1 (centres undefined) F

Given CC1=CC(C)(C)Nc2ccc(CSc3ccccc3)cc21 , state whether its growth inhibition is at least 40%. F

Evaluate CCOC(=O)/C(=C/c1ccc(OC)c(OC)c1)C(=O)c1ccccc1 : growth inhibition at minimum 40%? T

Reported growth inhibition reaches at least 40% for Cc1c(N)nc(C(CC(N)=O)NCC(N)C(N)=O)nc1C(=O)NC(C(=O)NC(C)C(O)C(C)C(=O)NC(C(=O)NCCc1nc(-c2nc(C(=O)NCCCNCCCCN)cs2)cs1)C(C)O)C(OC1OC(CO)C(O)C(O)C1OC1OC(CO)C(O)C(OC(N)=O)C1O)c1cnc[nH]1 (centres undefined) ? T

---

Task for the reader: assign each of the following compounds its reported growth inhibition.
experiment: NCI Yeast Anticancer Drug Screen. Data for the mlh1 rad18 strain (AID 175); details: S. cerevisiae mlh1 rad18 strain growth inhibition; at 5.0 µM (retest, dose inferred, filed as 0.5); active compounds read high
Compounds without any hit were thinned out: in the full panel of roughly 79,000, 15% have a hit.
Give bare numbers, in %.

Example compounds with recorded growth inhibition:
CC(=O)c1ccc(N)cc1; 62
Oc1c(Cl)c(Cl)c(Cl)c2ccccc12; 87
CC(=O)OCC1OC(n2c(C)c(C(C)=O)c(-c3ccco3)c(C#N)c2=S)C(OC(C)=O)C(OC(C)=O)C1OC(C)=O (configuration not stated); -29
CN(C)/C=C1\CCc2ccc([N+](=O)[O-])cc2C1=O; 29
C=CCc1c2c(ccc(=O)c1O)-c1c(cc(OC)c(OC)c1OC)CCC2NC(C)=O (configuration not stated); 8
CC(C)Oc1ccc(Nc2ccccc2)cc1; -4
c1ccc(Cc2cc3ccccc3c3ccccc23)cc1; 4
Oc1ccccc1C=Nc1ccccc1O; 38
COc1ccc2cc(C(C)=O)c3ccccc3c2c1; 2
O=C1NC(=O)c2cc([N+](=O)[O-])ccc21; -4

// each listed compound needs a value for growth inhibition
1. CCn1c2ccccc2c2ccc(N=Cc3ccc(N(C)C)cc3)cc21
2. COc1ccccc1NC(=O)C(/C=N/C(=S)NCCNc1ccc(OC)c(OC)c1)=C(\C)O

5
10

---

For each record, write down the corresponding growth inhibition.
experiment: NCI Yeast Anticancer Drug Screen. Data for the rad50 strain (AID 155);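 further: 0% = growth of vehicle-only cultures of the same strain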; conditions: S. cerevisiae rad50 strain growth inhibition; at 50.0 µM; active compounds read high
The panel holds about 79,000 compounds, 15% with a hit somewhere; the sample as a whole holds those more often.
Numbers only, in %.

Some solved entries appear below for comparison.
Cc1n(-c2ccccc2)c2c([n+]1Cc1ccc([N+](=O)[O-])cc1)C(=O)c1ccccc1C2=O; 85.2
N#CC1Sc2ccccc2N1C(=O)OCc1ccccc1 (centres undefined); 90.1
Clc1ccc(CNCCCNCc2ccc(Cl)cc2)cc1; 27.8

For each entry beneath this line, provide reported growth inhibition.
1. O=c1c(Cl)c(Cl)cnn1CCCl
2. O=[N+]([O-])c1ccc(Cl)c(C2CC(c3cccc4ccccc34)=Nc3ccccc3S2)c1 (centres undefined)
3. O=C1C=CC(=O)c2c1ccc1c3ccccc3n(Cc3ccccc3)c21

1: 74.9; 2: 31.1; 3: 73

---

experiment: NCI Yeast Anticancer Drug Screen. Data for the mec2-1 strain (AID 157); settings: S. cerevisiae mec2-1 strain, at 5.0 µM (retest, dose inferred, filed as 0.5), active compounds read high
About 79,000 compounds went through this panel and 15% of them were active in at least one assay; those are over-represented in the sample as a whole.
PARAMETER MEASURED: growth inhibition (%)
Answers are plain numbers, in %.

# count of solved cases: 5
CC1CC[P+](c2ccccc2)(c2ccccc2)c2c1ccc1ccccc21 (stereo unspecified); 54
O=[N+]([O-])c1ccc2ccccc2c1O; 8
Cc1n(-c2ccccc2)c2c([n+]1Cc1ccc([N+](=O)[O-])cc1)C(=O)c1ccccc1C2=O; -7
Cc1ccc(S(=O)(=O)C23C(N=NC2(C)C)C3(C)C)cc1 (stereo unspecified); 4
O=S(=O)(CC(Cl)c1ccccc1)c1nc2ccccc2s1 (stereo unspecified); 2

Continue with the molecule presented below.
Record summary for CCCCCCC(CCCCCCCCCCC(=O)OCC(CC)CC)OC(=O)CC (stereo unspecified) : reported growth inhibition = -3

---

test: NCI Yeast Anticancer Drug Screen. Data for the mec2-1 strain (AID 157); conditions: S. cerevisiae mec2-1 strain, at 50.0 µM (retest, dose inferred, filed as 5.0), active compounds read high
Compounds without any hit were thinned out: in the full panel of roughly 79,000, 15% have a hit.
So I've got a bunch of compounds here, and I need their growth inhibition values.
Numbers only, in %.

CC1CC=CCC1C(=O)O (stereo not drawn); -2

For every item below, please supply its growth inhibition.
1. OC(CN1CCCCC1)c1cc(-c2ccc(Cl)cc2)nc2cc(Cl)ccc12 (stereo not drawn)
2. CNC(=O)N(C)CN(C)C(=O)NC
3. COc1ccc(Oc2ccccc2N)cc1
4. Cc1nc2ccccc2cc1CCl
5. O=C(CCC(=O)OCCOc1ccccc1)OCCOc1ccccc1

1: 100; 2: 2; 3: 95; 4: 46; 5: -13

---

assay: NCI Yeast Anticancer Drug Screen. Data for the mec2-1 strain (AID 157); settings: S. cerevisiae mec2-1 strain, at 5.0 µM (retest, dose inferred, filed as 0.5)
Compounds without any hit were thinned out: in the full panel of roughly 79,000, 15% have a hit. Calls of active or inactive are those of the source. No stated cut-off is given here; in the data, active means growth inhibition above about 70%; inactive means the rest.
Hello, when you answer, please use one of the following outcomes: class 1 (active), class 0 (inactive)

Illustrative cases are given below, each with its answer.
O=C(c1ccco1)N(C(=S)N1CCN(c2ccccn2)CC1)C1CCCCC1; class 0
O=[N+]([O-])C(/C=C(\Cl)[N+](=O)[O-])=C(Nc1ccccc1)Nc1ccccc1; class 0

# lookup: test call for COc1ccc2nc(C)cc(NCCCCCCCCCNc3cc(C)nc4ccc(OC)cc34)c2c1 class 0

Hello, I am checking results. What call was entered for Oc1ccccc1C=Nc1ccccc1O ? class 0

Hi, sorry to bother you, what did the test record for CCN(CC)CCC(=O)/C=C/c1ccccc1 ? class 0

What did the test return for COc1ccc(C2c3cc4c(cc3OC(NNC(N)=O)C2C)OCO4)cc1 (stereo not given) ? class 0

Entry CC1CC=CCC1C(=O)O (stereo not given) : call = ? class 0

Query: recorded result category for O=C1CSC(=S)N1c1ccc(F)c(F)c1 in this test class 0

Field: outcome | Entry: Cc1ccccc1N=Nc1ccc(N=Nc2ccc(N)nc2N)c(C)c1 class 0

Hey, what did the test say about COC(=O)C1OC(OC(C)=O)C(OC(C)=O)C(OC(C)=O)C1OC(C)=O (stereo not given) ? class 0

Test call for this molecule, please: OCc1ccccc1C(c1ccccc1)c1ccccc1 class 0

Assay result, entry CCCCCCCCCCCCCCCC[N+](C)(C)c1nc(Cl)nc(Cl)n1 — outcome? class 1

Where do these numbers come from? They come from PubChem BioAssay (NCI).
